- System: mice
- ASSAY_SUMMARY: Neuropharmacological Assay (SmartCube): automated behavioral signature of compound-treated mice compared with a database of reference drug classes
- Type: in vivo
- ASSAY_SETUP: SmartCube class probability, 3.0 mg/kg i.p., 15 min before test, hydrochloride, 3 mg/kg
Where a name gives a salt, the structure may show the parent alone.
REPORTED_PROPERTY: AD

Known results for molecules:
{"columns": ["MOLECULE", "EXPERIMENTAL_TARGET", "MEASURED_VALUE"],
 "data": [
  ["NC1CCc2cscc2C1 (single isomer, unassigned) [Compound 166, hydrochloride]", "mice", "+ (≥4%)"],
  ["Cc1scc2c1CCC(N)C2 (single isomer, unassigned) [Compound 165, hydrochloride]", "mice", "ND (^ <4%)"],
  ["CNC1CCc2c(sc(Cl)c2C)C1 (single isomer, unassigned) [Compound 147, hydrochloride]", "mice", "ND (^ <4%)"],
  ["Cc1csc2c1CC(N)CC2 (single isomer, unassigned) [Compound 144, hydrochloride]", "mice", "ND (^ <4%)"]
]}

Now take the following molecule into account.
# AD measured on mice for item CC1(N)CCc2c(C(F)(F)F)csc2C1.Cl (single isomer, unassigned) [Compound 241] = + (≥4%)

###

- Tested on: mice
- ASSAY_SUMMARY: Neuropharmacological Assay (SmartCube): automated behavioral signature of compound-treated mice compared with a database of reference drug classes
- Type: in vivo
- ASSAY_SETUP: probability that activity matches this class of agents, 3.0 mg/kg i.p., 15 min before test, hydrochloride, 3 mg/kg
Where a name gives a salt, the structure may show the parent alone.
REPORTED_PROPERTY: AP

{"columns": ["COMPOUND", "AP"],
 "data": [
  ["CN(C)C1CCc2ccsc2C1.Cl (single isomer, unassigned) [Compound 16]", "ND (^ <4%)"],
  ["CNC1CCc2c(F)csc2C1 (single isomer, unassigned) [Compound 83, hydrochloride]", "+++ (≥49%)"],
  ["CNC1CCc2scc(F)c2C1 (single isomer, unassigned) [Compound 138, hydrochloride]", "+++ (≥49%)"],
  ["CNC1CCc2csc(C(F)(F)F)c2C1 (single isomer, unassigned) [Compound 61, hydrochloride]", "+++ (≥49%)"]
]}

Now take the following compound into account.
So for CNC1CCc2c(C)sc(C)c2C1 (single isomer, unassigned) [Compound 30, hydrochloride] , the logged AP turned out to be ++++ (≥74%)

###

- Tested on: mice
- ASSAY_SUMMARY: Neuropharmacological Assay (SmartCube): automated behavioral signature of compound-treated mice compared with a database of reference drug classes
- Assay type: in vivo
- ASSAY_SETUP: probability that activity matches this class of agents, 3.0 mg/kg i.p., 15 min before test
Structures can show the parent of a compound that is named as a salt.
REPORTED_PROPERTY: AP

{"columns": ["COMPOUND", "EXPERIMENTAL_TARGET", "AP"],
 "data": [
  ["CNC1CCc2sc(F)cc2C1 (centres unmarked) [Compound 82, hydrochloride]", "mice", "+ (≥4%)"],
  ["CNC1(C)CCc2c(F)csc2C1 (centres unmarked) [Compound 109, hydrochloride]", "mice", "ND (^ <4%)"],
  ["CC1(N)CCc2cscc2C1.Cl (single isomer, unassigned) [Compound 122]", "mice", "ND (^ <4%)"],
  ["CN(C)C1(C)CCc2cscc2C1 (single isomer, unassigned) [Compound 121, hydrochloride]", "mice", "+ (≥4%)"],
  ["Cl.c1cc2c(s1)CC(N1CCOCC1)CC2 (single isomer, unassigned) [Compound 22]", "mice", "ND (^ <4%)"]
]}

So for Cl.FC1(F)CC(NC2CCc3cscc3C2)C1 (single isomer, unassigned) [Compound 127] , the logged AP turned out to be ND (^ <4%)

So for Cl.c1scc2c1CCC(NC1CC1)C2 (single isomer, unassigned) [Compound 125] , the logged AP turned out to be ND (^ <4%)
